- System: BRSNW
- Measurement description: Pre-emergence effects on crop plants (Table D5)
- Assay type: in vivo, Brassica napus
- Protocol conditions: crop plant; application rate 320 g/ha; visual grading after ca. 3 weeks
Item-by-item account of pre-emergence activity against BRSNW

{"Molecule": "COc1ccccc1CN1CCCC2(CCCN(Cc3cccc(F)c3F)C2=O)C1=O (racemic)", "pre-emergence activity against BRSNW [%]": 0}
{"Molecule": "CC(c1ccccc1F)N1CCCC2(CCCN(C(C)c3ccccc3F)C2=O)C1=O (centres unmarked)", "pre-emergence activity against BRSNW [%]": 10}
{"Molecule": "O=C1N(Cc2cccc(F)c2Cl)CCCC12CCCN(Cc1cccc(F)c1Cl)C2=O (racemic)", "pre-emergence activity against BRSNW [%]": 20}
{"Molecule": "O=C1N(Cc2ccc(F)cc2F)CCCC12CCCN(Cc1ccc(F)cc1F)C2=O (racemic)", "pre-emergence activity against BRSNW [%]": 20}
{"Molecule": "O=C1N(Cc2cc(F)ccc2Cl)CCCC12CCCN(Cc1cc(F)ccc1Cl)C2=O (racemic)", "pre-emergence activity against BRSNW [%]": 0}
{"Molecule": "Cc1ccccc1CN1CCCC2(CCCN(Cc3ccccc3F)C2=O)C1=O (racemic)", "pre-emergence activity against BRSNW [%]": 0}
{"Molecule": "O=C1N(Cc2cccc(F)c2F)CCCC12CCCN(Cc1cccc(F)c1F)C2=O (racemic)", "pre-emergence activity against BRSNW [%]": 0}
{"Molecule": "O=C1N(Cc2ccccc2)CCCC12CCCN(Cc1ccccc1Cl)C2=O (racemic)", "pre-emergence activity against BRSNW [%]": 0}

====

- System: VIOTR
- Measurement description: Herbicidal pre-emergence action, section C (Table C12)
- Type: in vivo, Viola tricolor
- Protocol conditions: application rate 320 g/ha; visual grading after ca. 3 weeks
Item-by-item account of pre-emergence activity against VIOTR
Property: pre-emergence activity against VIOTR (%)

{"Molecule": "O=C1N(Cc2cccc(F)c2F)CCCC12CCCN(Cc1cccc(F)c1F)C2=O (racemic)", "Numeric result": 80}
{"Molecule": "O=C1N(Cc2ccc(F)cc2F)CCCC12CCCN(Cc1ccc(F)cc1F)C2=O (racemic)", "Numeric result": 80}
{"Molecule": "CC(c1c(F)cccc1F)N1CCCC2(CCCN(C(C)c3c(F)cccc3F)C2=O)C1=O (centres unmarked)", "Numeric result": 90}
{"Molecule": "O=C1N(Cc2c(F)ccc(F)c2F)CCCC12CCCN(Cc1c(F)ccc(F)c1F)C2=O (racemic)", "Numeric result": 80}
{"Molecule": "O=C1N(Cc2ccc(Cl)s2)CCCC12CCCN(Cc1ccc(Cl)s1)C2=O (racemic)", "Numeric result": 80}
{"Molecule": "O=C1N(Cc2ccccc2)CCCC12CCN(Cc1cccc(F)c1F)C2=O (racemic)", "Numeric result": 90}
{"Molecule": "O=C1N(Cc2ccccc2F)CCCC12CCCN(Cc1cccc(F)c1F)C2=O (racemic)", "Numeric result": 90}
{"Molecule": "O=C1N(Cc2cc(F)c(F)cc2F)CCCC12CCCN(Cc1cc(F)c(F)cc1F)C2=O (single isomer, unassigned; (-))", "Numeric result": 80}

====

- Tested on: ZEAMX
- Measurement description: Pre-emergence effects on crop plants (Table D1)
- Type: in vivo, Zea mays
- Protocol conditions: crop plant; application rate 320 g/ha; visual grading after ca. 3 weeks
Item-by-item account of pre-emergence activity against ZEAMX

{"Compound": "O=C1N(Cc2cccc(F)c2Cl)CCCC12CCCN(Cc1cccc(F)c1Cl)C2=O (racemic) [I-047]", "Target or test system": "ZEAMX", "pre-emergence activity against ZEAMX, %": 20}
{"Compound": "O=C1N(Cc2cccc(F)c2F)CCCC12CCN(Cc1c(F)cccc1F)C2=O (racemic) [I-032]", "Target or test system": "ZEAMX", "pre-emergence activity against ZEAMX, %": 0}
{"Compound": "O=C1N(Cc2ccccc2F)CCCC12CCN(Cc1ccccc1Cl)C2=O (racemic) [I-027]", "Target or test system": "ZEAMX", "pre-emergence activity against ZEAMX, %": 0}
{"Compound": "O=C1N(Cc2ccc(Cl)s2)CCCC12CCCN(Cc1ccc(Cl)s1)C2=O (racemic) [I-022]", "Target or test system": "ZEAMX", "pre-emergence activity against ZEAMX, %": 0}
{"Compound": "O=C1N(Cc2c(F)ccc(F)c2F)CCCC12CCCN(Cc1c(F)ccc(F)c1F)C2=O (racemic) [I-013]", "Target or test system": "ZEAMX", "pre-emergence activity against ZEAMX, %": 10}
{"Compound": "O=C1N(Cc2ccccc2)CCC12CCCN(Cc1cccc(F)c1F)C2=O (racemic) [I-028]", "Target or test system": "ZEAMX", "pre-emergence activity against ZEAMX, %": 0}
{"Compound": "CC(c1c(F)cccc1F)N1CCCC2(CCCN(C(C)c3c(F)cccc3F)C2=O)C1=O (centres unmarked) [I-074]", "Target or test system": "ZEAMX", "pre-emergence activity against ZEAMX, %": 0}
{"Compound": "O=C1N(Cc2ccccc2Cl)CCC12CCCN(Cc1c(F)cccc1F)C2=O (racemic) [I-045]", "Target or test system": "ZEAMX", "pre-emergence activity against ZEAMX, %": 0}
{"Compound": "O=C1N(Cc2c(F)cccc2Cl)CCCC12CCCN(Cc1c(F)cccc1Cl)C2=O (racemic) [I-063]", "Target or test system": "ZEAMX", "pre-emergence activity against ZEAMX, %": 0}
{"Compound": "O=C1N(Cc2cccc(F)c2F)CCCC12CCN(Cc1cccc(F)c1F)C2=O (racemic) [I-025]", "Target or test system": "ZEAMX", "pre-emergence activity against ZEAMX, %": 0}
{"Compound": "O=C1N(Cc2ccccc2F)CCC12CCCN(Cc1c(F)cccc1F)C2=O (racemic) [I-024]", "Target or test system": "ZEAMX", "pre-emergence activity against ZEAMX, %": 0}
